# target-entity: human CRTH2 (Homo sapiens)
# Construct: expressed in transfected cells
# method-summary: [35S]GTPγS binding assay (SPA) on membranes from CHO-K1 cells stably expressing human CRTH2, stimulated with 60 nM DHK-PGD2
# Format: biochemical
# experimental-context: potency class symbols; Table 2; read-out: CRTH2 hGTPγS IC50
# Protocol: [^35S]GTPγS Binding Assay SPA [^35S]G-TPγS binding was performed on membranes from CHO-K1 cells stably expressing human CRTH2. […] Plates were read after an additional 4 h using the Trilux 1450 Microbeta (PerkinElmer) with a 30 sec/well reading time.
metric: IC50

As a guide, the following entries are already answered.
>>> print(df.to_string())
                                   compound               target_entity  metric       obs_value
0  CN(Cc1ccc(OCC(=O)O)c(-c2cccc(C(F)(F)F)n2)c1)S(=O)(=O)c1ccc(F)cc1 [Example 127]  human CRTH2 (Homo sapiens)    IC50  100 to 1000 nM
1  CN(Cc1cc(-c2cc(F)cc(C#N)c2)c(OCC(=O)O)cc1F)S(=O)(=O)c1ccc(F)cc1 [Example 208]  human CRTH2 (Homo sapiens)    IC50        < 100 nM
2  CNS(=O)(=O)c1cccc(-c2cc(CN(C)S(=O)(=O)c3ccc(F)cc3)ccc2OCC(=O)O)c1 [Example 54]  human CRTH2 (Homo sapiens)    IC50        < 100 nM

Q: State IC50 on human CRTH2 (Homo sapiens). Entry: COc1ccccc1S(=O)(=O)N(C)Cc1ccc(OCC(=O)O)c(-c2cccc(C(F)(F)F)c2)c1 [Example 146]
A: 100 to 1000 nM

Q: Give human CRTH2 (Homo sapiens) IC50 for the following compound: CN(Cc1ccc(OCC(=O)O)c(-c2ccc(Cl)cc2)c1)S(=O)(=O)c1ccccc1 [Example 179]
A: 1000 to 10000 nM

Q: Specify IC50 for N#Cc1cc(F)cc(-c2cc(CNS(=O)(=O)c3ccc(F)c(Cl)c3)ccc2OCC(=O)O)c1 [Example 193] , system human CRTH2 (Homo sapiens).
A: < 100 nM

Q: Give the observed IC50 of COc1ccc(S(=O)(=O)N(C)Cc2ccc(OCC(=O)O)c(-c3cccc(C#N)c3)c2)cc1F [Example 71] for human CRTH2 (Homo sapiens).
A: < 100 nM

---

# target-entity: human CRTH2 (Homo sapiens, UniProt Q9Y5Y4)
# Construct: expressed in transfected cells
# Sequence (Q9Y5Y4 1-395): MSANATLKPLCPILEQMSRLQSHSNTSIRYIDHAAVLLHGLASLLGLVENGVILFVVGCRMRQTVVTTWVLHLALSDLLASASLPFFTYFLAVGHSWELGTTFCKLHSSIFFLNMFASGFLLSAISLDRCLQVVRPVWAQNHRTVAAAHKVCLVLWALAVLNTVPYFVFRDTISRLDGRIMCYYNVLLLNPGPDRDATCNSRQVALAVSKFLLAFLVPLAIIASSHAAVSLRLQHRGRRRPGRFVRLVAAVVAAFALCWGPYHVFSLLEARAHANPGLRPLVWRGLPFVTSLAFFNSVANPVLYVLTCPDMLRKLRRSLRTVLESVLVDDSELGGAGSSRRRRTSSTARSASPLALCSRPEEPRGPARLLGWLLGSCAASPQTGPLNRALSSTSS
# method-summary: [35S]GTPγS binding assay (SPA) on membranes from CHO-K1 cells stably expressing human CRTH2, stimulated with 60 nM DHK-PGD2
# Assay type: biochemical
# experimental-context: potency class symbols; Table 2; read-out: CRTH2 hGTPγS IC50
Measured IC50, listed per entry for reference.

Below, each entry is followed by its recorded IC50 result.
>>> df
                                   molecule                             target_entity         obs_value
0  CN(Cc1ccc(OCC(=O)O)c(-c2ccc(F)c(Cl)c2)c1)S(=O)(=O)c1ccc(F)cc1 [Example 157]  human CRTH2 (Homo sapiens, UniProt Q9Y5Y4)  1000 to 10000 nM
1  CN(Cc1ccc(OCC(=O)O)c(-c2cccc(Cl)c2)c1)S(=O)(=O)c1ccccc1 [Example 167]  human CRTH2 (Homo sapiens, UniProt Q9Y5Y4)  1000 to 10000 nM
2  CC(c1ccc(OCC(=O)O)c(-c2cccc(C(F)(F)F)c2)c1)N(C)S(=O)(=O)c1ccc(F)c(F)c1 (centres unmarked) [Example 93]  human CRTH2 (Homo sapiens, UniProt Q9Y5Y4)          < 100 nM

Q: Quickly give me recorded IC50 for COc1ccc(S(=O)(=O)N(C)Cc2ccc(OCC(=O)O)c(-c3cccc(C(F)(F)F)c3)c2)cc1 [Example 121]
A: 100 to 1000 nM

Q: Tell me its IC50 given CN(Cc1ccc(OCC(=O)O)c(-c2cc(F)cc(C#N)c2)c1)S(=O)(=O)c1ccc(Cl)s1 [Example 191] as the entry.
A: < 100 nM

Q: Hello, please tell me recorded IC50 for this one: CN(Cc1ccc(OCC(=O)O)c(-c2ccccc2)c1)S(=O)(=O)c1ccc(F)cc1 [Example 178]
A: 1000 to 10000 nM

Q: Identify measured IC50 associated with CN(Cc1cc(F)c(OCC(=O)O)c(-c2cccc(C#N)c2)c1)S(=O)(=O)c1ccc(F)cc1 [Example 136]
A: 100 to 1000 nM

Q: Look up IC50 of CN(Cc1cc(-c2cccc(C#N)c2)c(OCC(=O)O)cc1Cl)S(=O)(=O)c1cccc(F)c1 [Example 53] and report it.
A: < 100 nM

Q: Given the molecule COc1cccc(-c2cc(CN(C)S(=O)(=O)c3ccccc3)ccc2OCC(=O)O)c1 [Example 151] , write its reported IC50.
A: 1000 to 10000 nM

Q: Read the entry CN(Cc1cc(-c2cccc(C#N)c2)c(OCC(=O)O)cc1F)S(=O)(=O)c1ccccc1 [Example 98] and write its reported IC50.
A: < 100 nM

Q: Specify measured IC50 for CN(Cc1ccc(OCC(=O)O)c(-c2cccc(C(F)(F)F)c2)c1)S(=O)(=O)C1CC1 [Example 181] .
A: 1000 to 10000 nM

Q: Quickly give me recorded IC50 for C[C@H](Oc1ccc(CN(C)S(=O)(=O)c2ccc(F)cc2)cc1-c1cccc(C(F)(F)F)c1)C(=O)O [Example 36]
A: 100 to 1000 nM

Q: Check the records and state IC50 for O=C(O)COc1ccc(CNS(=O)(=O)c2ccc(F)cc2)cc1-c1cccc(C(F)(F)F)c1 [Example 110]
A: 100 to 1000 nM

Q: Could you please provide reported IC50 for C[C@@H](Oc1ccc(CN(C)S(=O)(=O)c2ccc(F)cc2)cc1-c1cccc(C(F)(F)F)c1)C(=O)O [Example 35] ? Thanks!
A: 1000 to 10000 nM

Q: Please indicate IC50 recorded for N#Cc1cccc(-c2cc(CNS(=O)(=O)c3ccc(F)cc3)ccc2OCC(=O)O)c1 [Example 9]
A: < 100 nM

Q: Consider the molecule N#Cc1cc(F)cc(-c2cc(CNS(=O)(=O)c3ccc(F)cc3)ccc2OCC(=O)O)c1 [Example 195] . State its measured IC50.
A: < 100 nM

Q: Respond only with IC50 recorded for COc1ccc(-c2cc(CN(C)S(=O)(=O)c3ccc(F)cc3)ccc2OCC(=O)O)cc1 [Example 164]
A: 1000 to 10000 nM

Q: Tell me IC50 reported for CN(Cc1ccc(OCC(=O)O)c(-c2cccc(C(F)(F)F)c2)c1)S(=O)(=O)c1ccccc1 [Example 131]
A: 100 to 1000 nM

Q: Read off the recorded IC50 for CN(Cc1cc(-c2cccc(C#N)c2)c(OCC(=O)O)cc1F)S(=O)(=O)c1ccc(F)c(Cl)c1 [Example 43]
A: < 100 nM

Q: For the molecule CN(Cc1ccc(OCC(=O)O)c(-c2cccc(C#N)c2)c1)S(=O)(=O)c1ccc(F)c(F)c1 [Example 63] , report IC50.
A: < 100 nM

---

# target-entity: human CRTH2 (Homo sapiens)
# Construct: expressed in transfected cells
# method-summary: [35S]GTPγS binding assay (SPA) on membranes from CHO-K1 cells stably expressing human CRTH2, stimulated with 60 nM DHK-PGD2
# Assay type: biochemical
# experimental-context: potency class symbols; Table 2; read-out: CRTH2 hGTPγS IC50
# Method: [^35S]GTPγS Binding Assay SPA [^35S]G-TPγS binding was performed on membranes from CHO-K1 cells stably expressing human CRTH2. […] Plates were read after an additional 4 h using the Trilux 1450 Microbeta (PerkinElmer) with a 30 sec/well reading time.
metric: IC50

The examples below pair each entry with its known result.
>>> df
                           structure_string         obs_value
0  CS(=O)(=O)c1cccc(-c2cc(CNS(=O)(=O)c3ccc(F)cc3)ccc2OCC(=O)O)c1          < 100 nM
1  CC(C)N(Cc1ccc(OCC(=O)O)c(-c2cccc(C(F)(F)F)c2)c1)S(=O)(=O)c1ccc(F)c(F)c1  1000 to 10000 nM

Q: Indicate the recorded IC50 value for this compound: COc1cc(F)cc(-c2cc(CN(C)S(=O)(=O)c3ccc(F)c(Cl)c3)ccc2OCC(=O)O)c1
A: < 100 nM

Q: Identify measured IC50 corresponding to CN(Cc1ccc(OCC(=O)O)c(-c2cccc(C(F)(F)F)c2)c1)S(=O)(=O)Cc1ccccc1
A: 1000 to 10000 nM

All values here come from patent US8822467B2.
